- MEASUREMENT_TARGET: T1, human MYCT1 (hMYCT1) (human, UniProt Q8N699 1-235, limits assumed)
- T1 construct: also called MYC Target 1
- T1 sequence: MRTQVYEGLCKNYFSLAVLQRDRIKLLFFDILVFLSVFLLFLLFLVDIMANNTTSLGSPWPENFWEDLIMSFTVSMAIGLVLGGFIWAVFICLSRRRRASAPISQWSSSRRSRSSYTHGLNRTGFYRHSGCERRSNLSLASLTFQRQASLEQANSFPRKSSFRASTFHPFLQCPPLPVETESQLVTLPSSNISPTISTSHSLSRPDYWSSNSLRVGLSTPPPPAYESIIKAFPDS
- ASSAY_EXPLANATION: SPR koff ranking, single curve, antibody captured via anti-human Fc IgG, 10 nM MYCT1 as analyte, 1:1 binding model
We use 0.02 s⁻¹ as the dividing line for koff: on or above the line is met, below is not met.

Incoming: Decide: is the reported value of koff for 11B6-z4-uIgG1K (antibody, V domains shown) VH: EVQLVESGGGLVKPGGSLRLSCAASGFTFSDFGIHWVRQAPGKGLEWVSYISSGSRTIHYADTVKGRFTISRDNAKNSLYLQMNSLRAEDTAIYYCARRDWDPEWLAYWGQGTLVTVSS VL: DIVMTQSPLSLPVTPGEPASISCRSSLSLVHSNGHTYLHWYLQKPGQSPQLLIYKVSNRFSGVPDRFSGSGSGTDFTLKISRVEAEDVGVYYCSQSTHVPFTFGQGTKLEIK equal to or greater than 0.02 s⁻¹?
Outgoing: met

Incoming: Is koff at least 0.02 s⁻¹? Consider 11B6-z8-uIgG1K (antibody, V domains shown) VH: EVQLVESGGGLVKPGGSLRLSCAASGFTFSDFGIHWVRQAPGKGLEWVSYISSGSRTIHYADTVKGRFTISRDNAKNSLYLQMNSLRAEDTAVYYCARRDWDPEWLAYWGQGTLVTVSS VL: DIVMTQSPLSLPVTPGEPASISCRSSLSLVHSNGHTYLHWYLQKPGQSPQLLIYKVSNRFSGVPDRFSGSGSGTDFTLKISRVEAEDVGVYFCSQSTHVPFTFGQGTKLEIK
Outgoing: met

Incoming: Check if koff >= 0.02 s⁻¹ (inclusive). Item: 11B6-z11-uIgG1K (antibody, V domains shown) VH: EVQLVESGGGLVKPGGSLRLSCAASGFTFSDFGIHWVRQAPGKGLEWVGYISSGSRTIHYADTVKGRFTISRDNAKNSLYLQMNSLRAEDTAIYYCARRDWDPEWLAYWGQGTLVTVSS VL: DVVMTQSPLSLPVTPGEPASISCRSSLSLVHSNGHTYLHWYLQKPGQSPQLLIYKVSNRFSGVPDRFSGSGSGTDFTLKISRVEAEDVGVYFCSQSTHVPFTFGQGTKLEIK
Outgoing: not met

Incoming: Form field: koff at least 0.02 s⁻¹? Entry: 11B6-z1-uIgG1K (antibody, V domains shown) VH: EVQLVESGGGLVKPGGSLRLSCAASGFTFSDFGIHWVRQAPGKGLEWVGYISSGSRTIHYADTVKGRFTISRDNAKNSLYLQMNSLRAEDTAVYYCARRDWDPEWLAYWGQGTLVTVSS VL: DIVMTQSPLSLPVTPGEPASISCRSSLSLVHSNGHTYLHWYLQKPGQSPQLLIYKVSNRFSGVPDRFSGSGSGTDFTLKISRVEAEDVGVYYCSQSTHVPFTFGQGTKLEIK
Outgoing: not met

Incoming: I'd appreciate it if you could say whether 11B6-z2-uIgG1K (antibody, V domains shown) VH: EVQLVESGGGLVKPGGSLRLSCAASGFTFSDFGIHWVRQAPGKGLEWVSYISSGSRTIHYADTVKGRFTISRDNAKNTLYLQMNSLRAEDTAVYYCARRDWDPEWLAYWGQGTLVTVSS VL: DIVMTQSPLSLPVTPGEPASISCRSSLSLVHSNGHTYLHWYLQKPGQSPQLLIYKVSNRFSGVPDRFSGSGSGTDFTLKISRVEAEDVGVYYCSQSTHVPFTFGQGTKLEIK has koff at least equal to 0.02 s⁻¹.
Outgoing: met
